# testDescription: Pharmacokinetics and bioavailability in rats
# Type: in vivo
# statedConditions: both sexes, Sprague-Dawley, rat, plasma, iv, 2.5 mg/kg, SD rats, IV 2.5 mg/kg
Where a name gives a salt, the structure may show the parent alone.
measuredEndpoint: AUC(0-inf) (ng·h/mL)
One number for each entry, in ng·h/mL.

Query block: Please report the measured AUC(0-inf) for CCNc1ncc(C#Cc2cc(C(=O)Nc3cc(-n4cnc(C)c4)cc(C(F)(F)F)c3)ccc2C)cn1 [D755 hydrochloride salt]
Result block: 3740

====

Kindly state AUC(0-inf) for each of the entries shown.
# testDescription: Pharmacokinetics and bioavailability in rats
# Assay type: in vivo
# statedConditions: both sexes, Sprague-Dawley, rat, plasma, po, 25 mg/kg, SD rats, PO 25 mg/kg
Counter-ions that a name gives are not always drawn.
# output: number + unit

compound="Cc1ccc(C(=O)Nc2ccc(CN3CCN(C)CC3)c(C(F)(F)F)c2)cc1C#Cc1cnc2ccnn2c1 [D856 dimesylate salt]" measuredendpoint=AUC(0-inf) result="31800 ng·h/mL"

Each compound below has a recorded value; state its AUC(0-inf).
1. Cc1cn(-c2cc(NC(=O)c3ccc(C)c(C#Cc4cnc5ccnn5c4)c3)cc(C(F)(F)F)c2)cn1 [D822 mesylate salt]
2. Cc1ncn(-c2cc(NC(=O)c3ccc(C)c(C#Cc4cnc5[nH]ncc5c4)c3)cc(C(F)(F)F)c2)n1 [D835 hydrochloride salt]
3. Cc1ccc(C(=O)Nc2cc(-n3ccnc3)cc(C(F)(F)F)c2)cc1C#Cc1cnc2[nH]ncc2c1 [D831 mesylate salt]
4. Cc1ccc(C(=O)Nc2ccc(CN3CCN(C)CC3)c(C(F)(F)F)c2)cc1C#Cc1cnc(NC2CC2)nc1 [D825 mesylate salt, trimesylate]
5. Cc1cn(-c2cc(NC(=O)c3ccc(C)c(C#Cc4cnc(NC5CC5)nc4)c3)cc(C(F)(F)F)c2)cn1 [D747 hydrochloride salt]
6. Cc1ccc(C(=O)Nc2ccc(CN3CCN(C)CC3)c(C(F)(F)F)c2)cc1C#Cc1cnc2[nH]ncc2c1 [D824 dimesylate salt]
7. CCNc1ncc(C#Cc2cc(C(=O)Nc3cc(-n4cnc(C)c4)cc(C(F)(F)F)c3)ccc2C)cn1 [D755 hydrochloride salt]

Result block:
10700 ng·h/mL
3470 ng·h/mL
73900 ng·h/mL
34600 ng·h/mL
252000 ng·h/mL
12600 ng·h/mL
23700 ng·h/mL

====

Could you please report measured Tmax for the items listed next?
# testDescription: Pharmacokinetics and bioavailability in rats
# Assay type: in vivo
# statedConditions: both sexes, Sprague-Dawley, rat, plasma, iv, 10 mg/kg, SD rats, IV 10 mg/kg; read-out: Tmax
Structures can show the parent of a compound that is named as a salt.
One number for each entry, in min.

Examples from the recorded data:
compound="Cc1cn(-c2cc(NC(=O)c3ccc(C)c(C#Cc4cnc(NC(C)C)nc4)c3)cc(C(F)(F)F)c2)cn1 [D752 mesylate salt]" numericvalue=1.98
compound="Cc1cn(-c2cc(NC(=O)c3ccc(C)c(C#Cc4cnc(NC5CC5)nc4)c3)cc(C(F)(F)F)c2)cn1 [D747 hydrochloride salt]" numericvalue=1.98

Query block: Note Tmax for the compound shown: Cc1cn(-c2cc(NC(=O)c3ccc(C)c(C#Cc4cnc5ccnn5c4)c3)cc(C(F)(F)F)c2)cn1 [D822 mesylate salt]
Result block: 1.98

====

# testDescription: Pharmacokinetics and bioavailability in rats
# Assay type: in vivo
# statedConditions: both sexes, Sprague-Dawley, rat, plasma, po, 25 mg/kg, SD rats, PO 25 mg/kg; read-out: Cmax
Where a name gives a salt, the structure may show the parent alone.
Kind request: treat 4000 ng/mL as inclusive, so Cmax at 4000 ng/mL or higher is Criterion met, anything lower is Criterion not met.

compound="Cc1ncn(-c2cc(NC(=O)c3ccc(C)c(C#Cc4cnc5[nH]ncc5c4)c3)cc(C(F)(F)F)c2)n1 [D835 hydrochloride salt]" labelclass="Criterion not met"
compound="Cc1ccc(C(=O)Nc2cc(-n3ccnc3)cc(C(F)(F)F)c2)cc1C#Cc1cnc2[nH]ncc2c1 [D831 mesylate salt]" labelclass="Criterion met"
compound="Cc1ccc(C(=O)Nc2ccc(CN3CCN(C)CC3)c(C(F)(F)F)c2)cc1C#Cc1cnc2ccnn2c1 [D856 dimesylate salt]" labelclass="Criterion not met"

Please turn your attention to the following entry.
Query block: Evaluate CCNc1ncc(C#Cc2cc(C(=O)Nc3cc(-n4cnc(C)c4)cc(C(F)(F)F)c3)ccc2C)cn1 [D755 hydrochloride salt] : Cmax at minimum 4000 ng/mL?
Result block: Criterion not met

====

# testDescription: Pharmacokinetics and bioavailability in rats
# Type: in vivo
# statedConditions: both sexes, Sprague-Dawley, rat, plasma, po, 20 mg/kg, SD rats, PO 20 mg/kg
Structures can show the parent of a compound that is named as a salt.
measuredEndpoint: half-life (h)
Answers are plain numbers, in h.

Query block: State its half-life for this molecule: Cc1cn(-c2cc(NC(=O)c3ccc(C)c(C#Cc4cnc(NC(C)C)nc4)c3)cc(C(F)(F)F)c2)cn1 [D752 mesylate salt]
Result block: 7.55

====

Could you please report measured GI50 for the items listed next?
# assayTarget: BAF3-T315I cells (Ba/F3 cell line stably expressing BCR/ABL T315I) (Homo sapiens, UniProt P00519, T315I, cells depend on it)
# testDescription: tumor cell proliferation, MTT or CCK8 assay, 72 h incubation
# Type: cell-based, mice
# statedConditions: Ba/F3 expressing BCR/ABL T315I, 72 h, Table 1; read-out: IC50 on tumor cell proliferation, BAF3-T315I cells
One number for each entry, in nM.

recordsmiles=Cc1ccc(C(=O)Nc2ccc(CN3CC[C@@H](N(C)C)C3)c(C(F)(F)F)c2)cc1C#Cc1cnc2[nH]ncc2c1 uom=nM numericvalue=6.87
recordsmiles=Cc1ccc(C(=O)Nc2ccc(CN3CCN(C)CC3)c(C(F)(F)F)c2)cc1C#Cc1cnc(NC2CC2)nc1 uom=nM numericvalue=15.7
recordsmiles=Cc1ccc(C(=O)Nc2cc(-n3ccnc3)cc(C(F)(F)F)c2)cc1C#Cc1cnc2ccnn2c1 uom=nM numericvalue=3120
recordsmiles=Cc1ccc(C(=O)Nc2cccc(C(F)(F)F)c2)cc1C#Cc1cnc2[nH]ncc2c1 uom=nM numericvalue=19.5
recordsmiles=Cc1ncn(-c2cc(NC(=O)c3ccc(C)c(C#Cc4cnc5ccnn5c4)c3)cc(C(F)(F)F)c2)n1 uom=nM numericvalue=394

Quick one: give me GI50 for each item below, same order please.
1. Cc1ccc(C(=O)Nc2ccc(CN3CCN(CCO)CC3)c(C(F)(F)F)c2)cc1C#Cc1cnc2ccnn2c1
2. Cc1cn(-c2cc(NC(=O)c3ccc(C)c(C#Cc4ccc(N)nc4)c3)cc(C(F)(F)F)c2)cn1
3. Cc1cn(-c2cc(NC(=O)c3ccc(C)c(C#Cc4cnc5[nH]ncc5c4)c3)cc(C(C)(C)C)c2)cn1

Result block:
102
29.8
6.36

====

# System: U937 Cell line
# testDescription: tumor cell proliferation, MTT or CCK8 assay, 72 h incubation
# Type: cell-based
# statedConditions: Homo sapiens, U-937; 72 h, MTT or CCK8; no unit in cell; read-out: IC50 on tumor cell proliferation, U937
pIC50: −log10 of the molar value.
measuredEndpoint: pIC50

Use the examples below as a reference point.
recordsmiles=Cc1cn(-c2cc(Cl)cc(NC(=O)c3ccc(C)c(C#Cc4cnc5[nH]ncc5c4)c3)c2)cn1 measuredendpoint=pIC50 result="< 6.00"
recordsmiles=Cc1cn(-c2cc(F)cc(NC(=O)c3ccc(C)c(C#Cc4cnc5[nH]ncc5c4)c3)c2)cn1 measuredendpoint=pIC50 result="< 6.00"

Query block: Give pIC50 for this entry on U937 Cell line: `Cc1cn(-c2cc(NC(=O)c3ccc(C)c(C#Cc4cnc5[nH]ncc5c4)c3)cc(C(C)(C)C)c2)cn1`
Result block: < 6.00

====

# Test system: K562R cells (imatinib-resistant cell line)
# testDescription: tumor cell proliferation, MTT or CCK8 assay, 72 h incubation
# Assay type: cell-based
# statedConditions: Homo sapiens, K-562R, imatinib-resistant K562R, read-out: IC50 on tumor cell proliferation, K562R cells
measuredEndpoint: IC50 (nM)
One number for each entry, in nM.

A selection of reference data follows.
recordsmiles=Cc1cn(-c2cc(NC(=O)c3ccc(C)c(C#Cc4cnc5ccnn5c4)c3)cc(C(C)(C)C)c2)cn1 uom=nM numericvalue=410
recordsmiles=Cc1ccc(C(=O)Nc2ccc(CN3CC[C@@H](N(C)C)C3)c(C(F)(F)F)c2)cc1C#Cc1cnc2ccnn2c1 uom=nM numericvalue=320
recordsmiles=Cc1ccc(C(=O)Nc2cc(-n3ccnc3)cc(C(F)(F)F)c2)cc1C#Cc1cnc2ccnn2c1 uom=nM numericvalue=146

Query block: Annotate the molecule `Cc1cn(-c2cc(NC(=O)c3ccc(C)c(C#Cc4cnc5[nH]ccc5c4)c3)cc(C(F)(F)F)c2)cn1` with its measured IC50.
Result block: 200

====

Kindly state Cmax for each of the entries shown.
# testDescription: Pharmacokinetics and bioavailability in rats
# Format: in vivo
# statedConditions: both sexes, Sprague-Dawley, rat, plasma, po, 25 mg/kg, SD rats, PO 25 mg/kg; read-out: Cmax
Structures can show the parent of a compound that is named as a salt.
Numbers only, in ng/mL.

Count: 4. Required value per item: Cmax.
1. Cc1cn(-c2cc(NC(=O)c3ccc(C)c(C#Cc4cnc(NC5CC5)nc4)c3)cc(C(F)(F)F)c2)cn1 [D747 hydrochloride salt]
2. Cc1cn(-c2cc(NC(=O)c3ccc(C)c(C#Cc4cnc5ccnn5c4)c3)cc(C(F)(F)F)c2)cn1 [D822 mesylate salt]
3. Cc1ccc(C(=O)Nc2ccc(CN3CCN(C)CC3)c(C(F)(F)F)c2)cc1C#Cc1cnc(NC2CC2)nc1 [D825 mesylate salt, trimesylate]
4. Cc1ccc(C(=O)Nc2ccc(CN3CCN(C)CC3)c(C(F)(F)F)c2)cc1C#Cc1cnc2[nH]ncc2c1 [D824 dimesylate salt]

Result block:
6200
814
1700
775

Query block: Determine from records and report Cmax for Cc1cn(-c2cc(NC(=O)c3ccc(C)c(C#Cc4cnc5[nH]ncc5c4)c3)cc(C(F)(F)F)c2)cn1 [D767 hydrochloride salt]
Result block: 3620
